- MEASUREMENT PROTOCOL: Immunosuppressive activity in ICR mouse B cells assessed as inhibition of LPS-stimulated cell proliferation after 72 hrs by MTT assay
- Format: functional, cell-based
Listing of recorded pIC50 by entry.
Quick note: pIC50 means taking -log10 of the concentration in moles per liter.

O=C(Nc1nc2ccccc2s1)c1ccc(Cl)cc1Cl :: 4.70
CC(=O)c1sc(Nc2ccc(C)c(Cl)c2)nc1C :: 5.33
C/C(O)=C(\C#N)C(=O)Nc1ccc(C(F)(F)F)cc1 [TERIFLUNOMIDE] :: 5.39

Query :: Query (molecule): COC(=O)c1ccc(Nc2nc(-c3ccc(Cl)cc3)c(C)s2)cc1 ; field requested: pIC50
Result :: 4.89

Query :: Consider the molecule shown here: O=C(Nc1nc2ccccc2s1)c1cccc(C(Cl)(Cl)Cl)c1 What is its recorded pIC50?
Result :: 5.06

Query :: Value lookup for pIC50; key = CCc1cccc(NC(=O)/C=C/c2ccc(Cl)c(Cl)c2)c1
Result :: 4.95

Query :: Report pIC50 for O=C(/C=C/c1ccc(O)c(C(=O)O)c1)c1ccc(Cl)cc1 please.
Result :: 5.75

Query :: Would you kindly share the measured pIC50 for Oc1ccc(/C=N/c2cccc3ccccc23)c(O)c1 ?
Result :: 4.95

Query :: Item under review: Oc1ccc(/N=C/c2ccc3ccccc3c2)cc1 . Reported pIC50?
Result :: 5.00

Query :: Any idea what its pIC50 is? The molecule is COc1cccc(C(=O)Nc2nc3ccccc3s2)c1
Result :: 4.79

Query :: Report pIC50 for O=Cc1ccccc1/C=N/Nc1nc(-c2ccccc2)cs1 please.
Result :: 4.85

----------
pIC50: −log10 of the molar value.
These molecules were tested on Dihydroorotate dehydrogenase (Plasmodium falciparum); pIC50 is the recorded read-out.
Sequence (Q54A96 whole entry): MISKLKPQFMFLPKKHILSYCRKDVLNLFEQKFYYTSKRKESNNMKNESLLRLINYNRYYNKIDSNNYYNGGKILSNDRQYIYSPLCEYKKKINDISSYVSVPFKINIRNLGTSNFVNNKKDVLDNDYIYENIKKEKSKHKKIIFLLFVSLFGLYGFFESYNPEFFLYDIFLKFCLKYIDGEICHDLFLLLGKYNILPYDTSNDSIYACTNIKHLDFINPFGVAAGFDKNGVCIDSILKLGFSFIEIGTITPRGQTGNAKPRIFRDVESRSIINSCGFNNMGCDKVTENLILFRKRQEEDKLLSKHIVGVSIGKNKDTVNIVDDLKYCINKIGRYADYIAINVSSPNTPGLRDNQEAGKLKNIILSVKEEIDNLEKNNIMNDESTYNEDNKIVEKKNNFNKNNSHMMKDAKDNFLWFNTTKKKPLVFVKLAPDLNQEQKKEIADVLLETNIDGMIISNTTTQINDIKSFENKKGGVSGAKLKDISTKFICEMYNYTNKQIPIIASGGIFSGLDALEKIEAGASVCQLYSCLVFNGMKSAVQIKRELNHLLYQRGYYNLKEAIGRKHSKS
MEASURED METRIC: pIC50

[I] CC(=O)c1sc(Nc2ccc(C)c(Cl)c2)nc1C
[II] O=c1cc(-c2ccc(O)c(O)c2)oc2ccccc12
Query :: I would appreciate it if you could say which entry, I or II , has the lower pIC50 value. Record your answer as the label of the chosen record.
Result :: II
(II: 5.02, I: 6.12)
